molecular target: alpha2B receptor (Homo sapiens); construct: expressed in transfected cells; host or cells: NIH-3T3 cells; assay: Receptor Selection and Amplification Technology (RSAT) assay, alpha2B; assay type: cell-based; conditions: RSAT, transfected NIH-3T3 cells; value outside brackets; read-out: Alpha 2B EC50 (potency)
Provide the recorded pEC50 for the entries that follow.
Give bare numbers, as −log10 of the molar value.

Check out these entries, answers already filled in.
Cc1cccc(C(c2ccccn2)c2c[nH]cn2)c1C (centres unmarked) | 9.04
Fc1cccc(C(c2ccccn2)c2c[nH]cn2)c1F (centres unmarked) | 6.39
Fc1c(Cl)cccc1C(c1ccncc1)c1cnc[nH]1 (centres unmarked) | 7.40
Cc1c(F)cccc1C(c1ccccn1)c1c[nH]cn1 (centres unmarked) | 7.44

Moving on to the next compound.
Incoming: I have this compound here, Fc1c(Cl)cccc1C(c1cccnc1)c1cnc[nH]1 (centres unmarked) , and I need its recorded pEC50.
Outgoing: 8.28

====

Biological target: alpha2B receptor (Homo sapiens, UniProt P18089)
Construct: expressed in transfected cells; host or cells: NIH-3T3 cells
Sequence (P18089 1-450): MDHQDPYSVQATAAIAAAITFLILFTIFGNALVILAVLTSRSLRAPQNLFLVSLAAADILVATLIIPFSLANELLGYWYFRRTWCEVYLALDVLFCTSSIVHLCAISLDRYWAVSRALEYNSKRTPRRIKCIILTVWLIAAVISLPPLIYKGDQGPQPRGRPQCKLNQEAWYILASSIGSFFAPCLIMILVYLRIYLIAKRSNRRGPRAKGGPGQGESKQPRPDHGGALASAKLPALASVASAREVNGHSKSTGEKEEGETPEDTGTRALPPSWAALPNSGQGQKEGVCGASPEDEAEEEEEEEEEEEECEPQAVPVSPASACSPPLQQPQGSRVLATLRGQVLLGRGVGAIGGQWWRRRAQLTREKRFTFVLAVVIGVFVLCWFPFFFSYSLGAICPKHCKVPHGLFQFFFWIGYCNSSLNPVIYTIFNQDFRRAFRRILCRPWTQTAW
Assay: Receptor Selection and Amplification Technology (RSAT) assay, alpha2B
Type: cell-based
Settings: RSAT; ratio of maximal effect to that of standard full agonist brimonidine (UK14304); value in brackets
In plain terms, low Alpha 2B intrinsic activity (efficacy), meaning strictly below 1, gives 1 (yes), and everything else gives 0 (no).

Solved entries (count: 5):
Fc1c(C(c2cccnc2)c2c[nH]cn2)cccc1C(F)(F)F (stereo not drawn) | 0 (no)
Fc1c(Cl)cccc1C(c1c[nH]cn1)c1cccs1 (stereo not drawn) | 1 (yes)
Cc1c(Cl)cccc1C(c1ccccn1)c1c[nH]cn1 (stereo not drawn) | 0 (no)
Clc1cccc(C(c2ccncc2)c2c[nH]cn2)c1Cl (stereo not drawn) | 0 (no)
Fc1ccccc1C(c1cccnc1)c1c[nH]cn1 (stereo not drawn) | 1 (yes)

Incoming: State whether 1 exceeds Alpha 2B intrinsic activity (efficacy) recorded for Cc1ccccc1C(c1ccncc1)c1c[nH]cn1 (stereo not drawn) .
Outgoing: 1 (yes)

====

Provide the recorded Alpha 2A intrinsic activity (efficacy) for the entries that follow.
target: alpha2A receptor (Homo sapiens, UniProt P08913); construct: expressed in transfected cells; host or cells: NIH-3T3 cells; test: Receptor Selection and Amplification Technology (RSAT) assay, alpha2A; assay type: cell-based; conditions: RSAT; ratio of maximal effect to that of standard full agonist brimonidine (UK14304); value in brackets
Answers are plain numbers.

Fc1c(Cl)cccc1C(c1cccnc1)c1cnc[nH]1 (stereo not shown) | 0.28
Fc1ccccc1C(c1ccncc1)c1c[nH]cn1 (stereo not shown) | 0.04

Would you mind listing Alpha 2A intrinsic activity (efficacy) for each of the following compounds?
1. Cc1cccc(C(c2ccccn2)c2c[nH]cn2)c1C (stereo not shown)
2. Cc1c(Cl)cccc1C(c1ccccn1)c1c[nH]cn1 (stereo not shown)
3. Cc1cccc(C(c2cccnc2)c2c[nH]cn2)c1C (stereo not shown)
4. c1ccc(C(c2cccnc2)c2c[nH]cn2)cc1 (stereo not shown)
5. Fc1cccc(C(c2cccnc2)c2c[nH]cn2)c1 (stereo not shown)

Outgoing:
0.39
0.12
0.19
0.11
0.05

====

Target: alpha2A receptor (Homo sapiens)
Construct: expressed in transfected cells; host or cells: NIH-3T3 cells
Sequence (P08913 1-465): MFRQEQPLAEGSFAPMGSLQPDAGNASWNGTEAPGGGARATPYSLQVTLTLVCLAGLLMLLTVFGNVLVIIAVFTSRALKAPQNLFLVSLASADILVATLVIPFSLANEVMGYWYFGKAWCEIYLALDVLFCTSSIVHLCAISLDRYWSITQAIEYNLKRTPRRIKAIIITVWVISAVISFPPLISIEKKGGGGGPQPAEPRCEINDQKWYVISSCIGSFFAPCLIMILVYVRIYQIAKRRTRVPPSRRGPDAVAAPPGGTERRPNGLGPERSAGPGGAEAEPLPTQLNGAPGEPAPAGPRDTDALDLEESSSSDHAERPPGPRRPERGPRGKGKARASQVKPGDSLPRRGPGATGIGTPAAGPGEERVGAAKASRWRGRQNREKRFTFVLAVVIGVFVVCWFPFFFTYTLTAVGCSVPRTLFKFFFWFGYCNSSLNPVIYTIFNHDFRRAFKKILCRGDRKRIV
Assay: Receptor Selection and Amplification Technology (RSAT) assay, alpha2A
Type: cell-based
Conditions: RSAT; ratio of maximal effect to that of standard full agonist brimonidine (UK14304); value in brackets
Provide the recorded Alpha 2A intrinsic activity (efficacy) for the entries that follow.

Check out these entries, answers already filled in.
c1ccc(C(c2ccncc2)c2c[nH]cn2)cc1 (stereo not shown) | 0.10
Fc1ccccc1C(c1ccccn1)c1c[nH]cn1 (stereo not shown) | 0.04
Fc1c(Cl)cccc1C(c1ccncc1)c1cnc[nH]1 (stereo not shown) | 0.09
Fc1c(C(c2cccnc2)c2c[nH]cn2)cccc1C(F)(F)F (stereo not shown) | 0.23

Would you mind listing Alpha 2A intrinsic activity (efficacy) for each of the following compounds?
1. Cc1ccccc1C(c1cccnc1)c1c[nH]cn1 (stereo not shown)
2. c1ccc(C(c2ccccn2)c2c[nH]cn2)cc1 (stereo not shown)
3. Fc1cccc(C(c2ccccn2)c2c[nH]cn2)c1F (stereo not shown)

Outgoing:
1. 0.06
2. 0.04
3. 0.05

====

target: alpha2C receptor (Homo sapiens, UniProt P18825); construct: expressed in transfected cells; host or cells: NIH-3T3 cells; assay: Receptor Selection and Amplification Technology (RSAT) assay, alpha2C; format: cell-based; details: RSAT; ratio of maximal effect to that of standard full agonist brimonidine (UK14304); value in brackets
Sequence (P18825 whole entry): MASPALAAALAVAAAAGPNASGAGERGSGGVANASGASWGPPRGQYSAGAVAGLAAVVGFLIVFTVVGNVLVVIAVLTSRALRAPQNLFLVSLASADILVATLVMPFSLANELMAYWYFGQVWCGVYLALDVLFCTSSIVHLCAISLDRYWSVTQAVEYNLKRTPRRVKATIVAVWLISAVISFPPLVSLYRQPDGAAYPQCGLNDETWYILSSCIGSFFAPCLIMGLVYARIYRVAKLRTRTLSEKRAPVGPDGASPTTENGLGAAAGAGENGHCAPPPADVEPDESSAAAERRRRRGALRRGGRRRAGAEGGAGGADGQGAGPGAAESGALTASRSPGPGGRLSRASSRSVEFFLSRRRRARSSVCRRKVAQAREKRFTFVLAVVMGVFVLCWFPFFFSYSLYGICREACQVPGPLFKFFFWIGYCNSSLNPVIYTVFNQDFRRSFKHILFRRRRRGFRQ
ASSAY_METRIC: Alpha 2C intrinsic activity (efficacy)
Numbers only.

Check out these entries, answers already filled in.
Fc1ccccc1C(c1ccncc1)c1c[nH]cn1 (stereo not shown) | 0.48
Cc1cccc(C(c2cccnc2)c2c[nH]cn2)c1C (stereo not shown) | 0.55
Fc1ccccc1C(c1ccccn1)c1c[nH]cn1 (stereo not shown) | 0.43
Cc1ccccc1C(c1ccncc1)c1c[nH]cn1 (stereo not shown) | 1.08
Fc1cccc(C(c2cccnc2)c2c[nH]cn2)c1 (stereo not shown) | 0.17

Would you mind listing Alpha 2C intrinsic activity (efficacy) for each of the following compounds?
1. Clc1cccc(C(c2ccncc2)c2c[nH]cn2)c1Cl (stereo not shown)
2. Fc1c(C(c2ccccn2)c2c[nH]cn2)cccc1C(F)(F)F (stereo not shown)
3. Fc1ccccc1C(c1cccnc1)c1c[nH]cn1 (stereo not shown)
4. Cc1c(F)cccc1C(c1ccccn1)c1c[nH]cn1 (stereo not shown)
5. Cc1cccc(C(c2ccccn2)c2c[nH]cn2)c1C (stereo not shown)

Outgoing:
1: 0.72; 2: 1.09; 3: 0.55; 4: 0.38; 5: 0.64

====

Target: alpha2B receptor (Homo sapiens, UniProt P18089)
Construct: expressed in transfected cells; host or cells: NIH-3T3 cells
Sequence (P18089 1-450): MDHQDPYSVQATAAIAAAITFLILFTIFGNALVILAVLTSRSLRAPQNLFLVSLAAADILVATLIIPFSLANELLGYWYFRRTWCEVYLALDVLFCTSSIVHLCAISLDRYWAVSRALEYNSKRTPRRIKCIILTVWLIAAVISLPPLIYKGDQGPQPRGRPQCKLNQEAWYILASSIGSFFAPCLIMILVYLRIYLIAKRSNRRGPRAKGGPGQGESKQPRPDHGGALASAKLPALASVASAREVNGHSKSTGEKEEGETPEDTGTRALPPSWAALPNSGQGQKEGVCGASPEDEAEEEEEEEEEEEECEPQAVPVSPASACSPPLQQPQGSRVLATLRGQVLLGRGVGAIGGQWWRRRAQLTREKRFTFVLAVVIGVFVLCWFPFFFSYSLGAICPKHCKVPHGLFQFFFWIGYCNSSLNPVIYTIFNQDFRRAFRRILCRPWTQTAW
Experiment: Receptor Selection and Amplification Technology (RSAT) assay, alpha2B
Format: cell-based
Provide the recorded EC50 for the entries that follow.
One number for each entry, in nM.

Check out these entries, answers already filled in.
Clc1cccc(C(c2ccccn2)c2c[nH]cn2)c1Cl (stereo not drawn) | 8.7
Fc1c(Cl)cccc1C(c1c[nH]cn1)c1cccs1 (stereo not drawn) | 46

Moving on to the next compound.
Incoming: I have this compound here, Fc1ccccc1C(c1cccnc1)c1c[nH]cn1 (stereo not drawn) , and I need its recorded EC50.
Outgoing: 251

Reference source: patent US20100273814A1
